Data credit: ChEMBL document CHEMBL1125324

Please consider the recorded IC50 for Oxytocin receptor (Rattus norvegicus) in what follows.
Where a SMILES comes first, the peptide text is derived from it. [ ]: non-standard residue; d: D form. dPiz(1,6-dehydro) = O=C(O)[C@H]1CCC=NN1; dNMeF = CN[C@H](Cc1ccccc1)C(=O)O; dPip = O=C(O)[C@H]1CCCCN1; Orn = NCCC[C@H](N)C(=O)O
measuredParameter: IC50 (nM)

CC[C@H](C)[C@@H]1NC(=O)[C@@H](Cc2ccccc2)NC(=O)[C@@H]2CCCN2C(=O)[C@@H](Cc2ccccc2)N(C)C(=O)[C@H](CC(=O)O)NC(=O)[C@H]2CCCCN2C1=O (cyclo(D[dNMeF]P[dF]I[dPip]))
1500
CC[C@H](C)[C@@H]1NC(=O)[C@@H](Cc2c[nH]c3ccccc23)NC(=O)[C@@H]2CCCN2C(=O)[C@@H](Cc2ccccc2)N(C)C(=O)[C@H](CCCN)NC(=O)[C@H]2CCC=NN2C1=O (cyclo(I[dPiz(1,6-dehydro)][Orn][dNMeF]P[dW]))
25

---

molecular target: Vasopressin V1a receptor (Rattus norvegicus); assay: Concentration required to displace 50% of [3H]arginine vasopressin from rat liver arginine vasopressin 1A (AVP-V1a) site.
pIC50: −log10 of the molar value. Where a SMILES comes first, the peptide text is derived from it. [ ]: non-standard residue; d: D form. dPiz(1,6-dehydro) = O=C(O)[C@H]1CCC=NN1; d1Nal = N[C@H](Cc1cccc2ccccc12)C(=O)O; dNMeF = CN[C@H](Cc1ccccc1)C(=O)O; Pip = O=C(O)[C@@H]1CCCCN1; dPip = O=C(O)[C@H]1CCCCN1
measuredParameter: pIC50

CC[C@H](C)[C@@H]1NC(=O)[C@@H](Cc2c[nH]c3ccccc23)NC(=O)[C@@H]2CCCN2C(=O)[C@@H](Cc2c[nH]cn2)NC(=O)[C@@H]2CCCCN2C(=O)[C@H]2CCCCN2C1=O (cyclo(I[dPip][Pip][dH]P[dW]))
5.13
CC[C@H](C)[C@@H]1NC(=O)[C@@H](Cc2ccccc2)NC(=O)[C@@H]2CCCN2C(=O)[C@@H](Cc2ccccc2)N(C)C(=O)[C@H](CCCCN)NC(=O)[C@H]2CCCCN2C1=O
5.70
CC[C@H](C)[C@@H]1NC(=O)[C@@H](Cc2ccccc2)NC(=O)[C@@H]2CCCN2C(=O)[C@@H](Cc2ccccc2)N(C)C(=O)[C@@H]2CCCCN2C(=O)[C@H]2CCC=NN2C1=O (cyclo(I[dPiz(1,6-dehydro)][Pip][dNMeF]P[dF]))
5.46
CC[C@H](C)[C@@H]1NC(=O)[C@@H](Cc2cccc3ccccc23)NC(=O)[C@@H]2CCCN2C(=O)[C@@H](Cc2ccccc2)N(C)C(=O)[C@H](CCCCN)NC(=O)[C@H]2CCCCN2C1=O
6.29
CC[C@H](C)[C@@H]1NC(=O)[C@@H](Cc2ccccc2)NC(=O)[C@@H]2CCCN2C(=O)[C@@H](Cc2ccccc2)N(C)C(=O)[C@@H]2CCCN2C(=O)[C@H]2CCCN2C1=O (cyclo([dNMeF]P[dF]I[dP]P))
5.48
CC[C@H](C)[C@@H]1NC(=O)[C@@H](Cc2ccccc2)NC(=O)[C@@H]2CCCN2C(=O)[C@@H](CCCCN)NC(=O)[C@@H]2CCCCN2C(=O)[C@H]2CCCCN2C1=O (cyclo(I[dPip][Pip][dK]P[dF]))
5.96
CC(C)C[C@@H]1NC(=O)[C@@H](Cc2c[nH]c3ccccc23)NC(=O)[C@@H]2CCCN2C(=O)[C@@H](Cc2c[nH]cn2)NC(=O)[C@@H]2CCCCN2C(=O)[C@H]2CCCCN2C1=O (cyclo(L[dPip][Pip][dH]P[dW]))
5.52
CC[C@H](C)[C@@H]1NC(=O)[C@@H](Cc2cccc3ccccc23)NC(=O)[C@@H]2CCCN2C(=O)[C@@H](Cc2cnc[nH]2)NC(=O)[C@@H]2CCCCN2C(=O)[C@H]2CCCCN2C1=O (cyclo(I[dPip][Pip][dH]P[d1Nal]))
6.12
CC[C@H](C)[C@@H]1NC(=O)[C@@H](Cc2cn(C)c3ccccc23)NC(=O)[C@@H]2CCCN2C(=O)[C@@H](Cc2cnc[nH]2)NC(=O)[C@@H]2CCCCN2C(=O)[C@H]2CCCCN2C1=O
5.43

---

Reported values of inhibition for individual entries
target: Vasopressin V2 receptor (Rattus norvegicus) (UniProt Q00788); experiment: Displacement of [3H]arginine vasopressin from rat kidney medullary (AVP-V2 site) at 10 uM; format: tissue-based
Sequence (Q00788 whole entry): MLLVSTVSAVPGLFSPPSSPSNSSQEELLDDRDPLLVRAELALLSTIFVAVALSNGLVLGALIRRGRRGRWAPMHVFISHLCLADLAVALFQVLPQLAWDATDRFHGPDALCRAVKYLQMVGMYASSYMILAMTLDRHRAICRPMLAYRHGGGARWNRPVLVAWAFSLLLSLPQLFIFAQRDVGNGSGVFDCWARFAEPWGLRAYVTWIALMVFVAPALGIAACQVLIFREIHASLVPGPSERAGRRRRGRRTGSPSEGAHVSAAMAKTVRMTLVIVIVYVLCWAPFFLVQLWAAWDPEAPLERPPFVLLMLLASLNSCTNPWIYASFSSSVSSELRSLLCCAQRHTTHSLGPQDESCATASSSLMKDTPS
Where a SMILES comes first, the peptide text is derived from it. [ ]: non-standard residue; d: D form. dNMeF = CN[C@H](Cc1ccccc1)C(=O)O; Pip = O=C(O)[C@@H]1CCCCN1; dPip = O=C(O)[C@H]1CCCCN1; NMeA = CN[C@@H](C)C(=O)O; dNMeA = CN[C@H](C)C(=O)O
measuredParameter: inhibition (%)

CC[C@H](C)[C@@H]1NC(=O)[C@@H](Cc2ccccc2)NC(=O)[C@@H]2CCCN2C(=O)[C@H](Cc2ccccc2)N(C)C(=O)[C@H](C)N(C)C(=O)[C@H]2CCCCN2C1=O
34
CC[C@H](C)[C@@H]1NC(=O)[C@H](C)NC(=O)[C@@H]2CCCN2C(=O)[C@@H](Cc2ccccc2)N(C)C(=O)[C@@H]2CCCCN2C(=O)[C@H]2CCCCN2C1=O
4
CC[C@H](C)[C@@H]1NC(=O)[C@@H](Cc2ccccc2)NC(=O)[C@@H]2CCCN2C(=O)[C@@H](Cc2ccccc2)N(C)C(=O)[C@@H]2CCCCN2C(=O)[C@@H](C)N(C)C1=O (cyclo(I[dNMeA][Pip][dNMeF]P[dF]))
17
CC[C@H](C)[C@@H]1NC(=O)[C@@H](Cc2ccccc2)NC(=O)[C@@H]2CCCN2C(=O)[C@@H](Cc2ccccc2)N(C)C(=O)[C@@H]2CCCCN2C(=O)[C@H]2CCCN2C1=O (cyclo(I[dP][Pip][dNMeF]P[dF]))
43
CC[C@H](C)[C@@H]1NC(=O)[C@@H](Cc2ccccc2)NC(=O)[C@H](C)N(C)C(=O)[C@@H](Cc2ccccc2)N(C)C(=O)[C@@H]2CCCCN2C(=O)[C@H]2CCCCN2C1=O (cyclo(I[dPip][Pip][dNMeF][NMeA][dF]))
37

---

experiment: Aqueous solubility was determined; format: physicochemical
Where a SMILES comes first, the peptide text is derived from it. [ ]: non-standard residue; d: D form. d2Nal = N[C@H](Cc1ccc2ccccc2c1)C(=O)O; Pip(4-aza) = O=C(O)[C@@H]1CNCCN1; dNMeF = CN[C@H](Cc1ccccc1)C(=O)O; Pip = O=C(O)[C@@H]1CCCCN1; dPip = O=C(O)[C@H]1CCCCN1
Parameter solubility: see the listing below.
measuredParameter: solubility (µg/mL)

CC[C@H](C)[C@@H]1NC(=O)[C@@H](Cc2c[nH]c3ccccc23)NC(=O)[C@@H]2CCCN2C(=O)[C@@H](Cc2c[nH]cn2)NC(=O)[C@@H]2CCCCN2C(=O)[C@H]2CCC=NN2C1=O
1900
CC[C@H](C)[C@@H]1NC(=O)[C@@H](Cc2ccc3ccccc3c2)NC(=O)[C@@H]2CCCN2C(=O)[C@@H](Cc2c[nH]cn2)NC(=O)[C@@H]2CCCCN2C(=O)[C@H]2CCCCN2C1=O (cyclo(I[dPip][Pip][dH]P[d2Nal]))
1500
CC[C@H](C)[C@@H]1NC(=O)[C@@H](Cc2ccccc2)NC(=O)[C@@H]2CCCN2C(=O)[C@@H](Cc2ccccc2)N(C)C(=O)[C@H](CCCN)NC(=O)[C@H]2CCC=NN2C1=O
1500
CC[C@H](C)[C@@H]1NC(=O)[C@@H](Cc2c[nH]c3ccccc23)NC(=O)[C@@H]2CCCN2C(=O)[C@@H](Cc2c[nH]cn2)NC(=O)[C@@H]2CCCCN2C(=O)[C@H]2CCCCN2C1=O (cyclo(I[dPip][Pip][dH]P[dW]))
2000
CC[C@H](C)[C@@H]1NC(=O)[C@@H](Cc2ccc3ccccc3c2)NC(=O)[C@@H]2CCCN2C(=O)[C@@H](Cc2ccccc2)N(C)C(=O)[C@H](CCCCN)NC(=O)[C@H]2CCCCN2C1=O (cyclo(I[dPip]K[dNMeF]P[d2Nal]))
1700
CC[C@H](C)[C@@H]1NC(=O)[C@@H](Cc2c[nH]c3ccccc23)NC(=O)[C@@H]2CCCN2C(=O)[C@@H](Cc2ccccc2)N(C)C(=O)[C@@H]2CNCCN2C(=O)[C@H]2CCCCN2C1=O (cyclo(I[dPip][Pip(4-aza)][dNMeF]P[dW]))
1400

---

target: Vasopressin V1a receptor (Rattus norvegicus) (UniProt P30560); experiment: Displacement of [3H]arginine vasopressin from rat liver (AVP-V1a site) at 10 uM
Sequence (P30560 whole entry, looked up): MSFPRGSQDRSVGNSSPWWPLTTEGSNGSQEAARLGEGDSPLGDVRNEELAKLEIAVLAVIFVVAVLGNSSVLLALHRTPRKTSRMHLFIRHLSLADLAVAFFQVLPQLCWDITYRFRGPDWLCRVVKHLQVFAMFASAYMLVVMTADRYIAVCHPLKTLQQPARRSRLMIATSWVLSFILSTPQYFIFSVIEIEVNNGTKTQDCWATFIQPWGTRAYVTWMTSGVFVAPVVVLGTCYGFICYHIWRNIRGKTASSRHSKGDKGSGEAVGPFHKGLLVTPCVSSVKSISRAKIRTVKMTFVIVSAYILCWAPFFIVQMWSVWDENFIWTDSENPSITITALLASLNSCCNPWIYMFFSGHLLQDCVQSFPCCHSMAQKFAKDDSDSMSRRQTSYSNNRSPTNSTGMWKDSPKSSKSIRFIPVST
Where a SMILES comes first, the peptide text is derived from it. [ ]: non-standard residue; d: D form. dNMeF = CN[C@H](Cc1ccccc1)C(=O)O; Pip = O=C(O)[C@@H]1CCCCN1; dNMeA = CN[C@H](C)C(=O)O
measuredParameter: inhibition (%)

CC[C@H](C)[C@@H]1NC(=O)[C@@H](Cc2ccccc2)NC(=O)[C@@H]2CCCCN2C(=O)[C@@H](Cc2ccccc2)N(C)C(=O)[C@@H]2CCCCN2C(=O)[C@H]2CCCCN2C1=O
51
CC[C@H](C)[C@H]1C(=O)N2CCCC[C@@H]2C(=O)N2CCCC[C@H]2C(=O)N(C)[C@H](Cc2ccccc2)C(=O)N2CCC[C@H]2C(=O)N[C@H](Cc2ccccc2)C(=O)N1C
18
CC[C@H](C)[C@@H]1NC(=O)[C@@H](Cc2ccccc2)NC(=O)[C@@H]2CCCN2C(=O)[C@@H](Cc2ccccc2)N(C)C(=O)[C@@H]2CCCCN2C(=O)[C@@H](C)N(C)C1=O (cyclo(I[dNMeA][Pip][dNMeF]P[dF]))
20
